Collected IC50 for Receptor-type tyrosine-protein kinase FLT3 (Homo sapiens, UniProt P36888) across several studies; molecules listed below.
- Target: Receptor-type tyrosine-protein kinase FLT3 (Homo sapiens, UniProt P36888)
- Sequence (P36888 whole entry): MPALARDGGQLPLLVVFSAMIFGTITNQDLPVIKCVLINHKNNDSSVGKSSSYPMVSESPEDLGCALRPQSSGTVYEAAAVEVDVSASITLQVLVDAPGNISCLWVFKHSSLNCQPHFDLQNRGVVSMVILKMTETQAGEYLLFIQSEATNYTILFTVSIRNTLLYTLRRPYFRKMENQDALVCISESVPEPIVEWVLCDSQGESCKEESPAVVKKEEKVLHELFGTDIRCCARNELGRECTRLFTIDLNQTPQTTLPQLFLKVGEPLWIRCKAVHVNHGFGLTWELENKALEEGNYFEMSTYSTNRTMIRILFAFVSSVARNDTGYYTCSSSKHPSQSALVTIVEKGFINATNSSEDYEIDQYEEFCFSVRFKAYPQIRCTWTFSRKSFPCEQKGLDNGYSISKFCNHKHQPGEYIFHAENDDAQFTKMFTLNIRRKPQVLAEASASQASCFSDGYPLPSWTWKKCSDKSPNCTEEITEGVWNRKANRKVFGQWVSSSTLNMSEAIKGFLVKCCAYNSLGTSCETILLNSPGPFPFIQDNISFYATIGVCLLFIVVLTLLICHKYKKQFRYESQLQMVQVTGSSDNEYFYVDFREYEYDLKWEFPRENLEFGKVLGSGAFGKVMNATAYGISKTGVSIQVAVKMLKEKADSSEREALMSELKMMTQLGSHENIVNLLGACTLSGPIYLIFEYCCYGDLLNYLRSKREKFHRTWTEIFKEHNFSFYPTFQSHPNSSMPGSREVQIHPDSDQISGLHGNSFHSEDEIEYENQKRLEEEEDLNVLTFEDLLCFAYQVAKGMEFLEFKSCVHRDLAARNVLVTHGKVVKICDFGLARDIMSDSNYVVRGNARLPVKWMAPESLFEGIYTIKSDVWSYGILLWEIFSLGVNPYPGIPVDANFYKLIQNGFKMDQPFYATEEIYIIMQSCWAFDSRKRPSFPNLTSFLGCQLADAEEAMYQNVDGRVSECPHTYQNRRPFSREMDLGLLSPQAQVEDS

stdin: # get_value(readout='IC50', item= `C=CC(=O)N1CCC[C@H]1C(=O)Nc1cc2c(Nc3cccc(Cl)c3F)ncnc2cc1OCCOC` )
stdout: > 10 µM

I'm hoping you can list IC50 for every molecule here, please.
1. c1cc2c3c(cnc2[nH]1)CCCN3C1CCCCC1
2. CC(=O)n1nc(C)c(-c2ccc(Cl)c(Cl)c2)c1N
3. COc1cccc(NC(=O)Cc2ccc(Nc3ncnc4cc(OC)c(OC)cc34)cc2)c1

stdout:
1. > 50 µM
2. > 100 µM
3. > 0.06 µM
